molecular target: the molecule itself; experiment: SEC; purified recombinant AGT variants; single peak, elution volume of a ≈90 kDa dimer; data not shown
metricName: stoichiometry N

IN: Query (protein): alanine:glyoxylate aminotransferase p.P11L, recombinant His-tagged (enzyme, human, UniProt P21549 1-392, looked up, alanine:glyoxylate aminotransferase (AGT), human, polymorphic variant p.P11L; source: E. coli BL21 (pCOLDII), purified (IMAC, SEC)) MASHKLLVTPLKALLKPLSIPNQLLLGPGPSNLPPRIMAAGGLQMIGSMSKDMYQIMDEIKEGIQYVFQTRNPLTLVISGSGHCALEAALVNVLEPGDSFLVGANGIWGQRAVDIGERIGARVHPMTKDPGGHYTLQEVEEGLAQHKPVLLFLTHGESSTGVLQPLDGFGELCHRYKCLLLVDSVASLGGTPLYMDRQGIDILYSGSQKALNAPPGTSLISFSDKAKKKMYSRKTKPFSFYLDIKWLANFWGCDDQPRMYHHTIPVISLYSLRESLALIAEQGLENSWRQHREAAAYLHGRLQALGLQLFVKDPALRLPTVTTVAVPAGYDWRDIVSYVIDHFDIEIMGGLGPSTGKVLRIGLLGCNATRENVDRVTEALRAALQHCPKKKL ; field requested: stoichiometry N
OUT: 2
